Attribution: patent US20180162928A1

- Test System: unrelated Fc-fused recombinant protein
- Protocol Description: ELISA, lysate on plate-bound antigen
Category scheme (ELISA Fc Control (RSU)): group A: < 600 RSU; group B: ≥ 600 RSU and < 800 RSU; group C: ≥ 800 RSU

>  <Binder>
ISOP194BR9P1D10 (designed binder, not shown: small tags and cut ends, FN3 domain; E. coli lysate in the ELISA) LPAPKNLVVSRVTEDSARLSWYEDNTERFDSFLIQYQESEKVVEAIVLTVPGSERSYDLTGLKPGTEYTVSIYGVYIRVQVLWFSNPLSAIFTT

>  <Label Value>
group B

$$$$
>  <Binder>
ISOP121AR5P1G6 (designed binder, not shown: small tags and cut ends, FN3 domain; E. coli lysate in the ELISA) LPAPKNLVVSRVTEDSARLSWHATFGDPFDSFLIQYQESEKVGEAIVLTVPGSERSYDLTGLKPGTEYTVSIYGVGRHYTVYDSNPLSAIFTT

>  <Label Value>
group C

$$$$
>  <Binder>
ISOP194AR9P1H9 (designed binder, not shown: small tags and cut ends, FN3 domain; E. coli lysate in the ELISA) LPAPKNLVVSRVTEDSARLSWEWLEHFDSFQIQYQESEKVGEAIVLTVPGSERSYDLTGLKPGTEYTVSIYGVYQRKVEFHSNPLSAIFTT

>  <Label Value>
group C

$$$$
>  <Binder>
ISOP121AR5P1H2 (designed binder, not shown: small tags and cut ends, FN3 domain; E. coli lysate in the ELISA) LPAPKNLVVSRVTEDSARLSWVIDEFIPLFDSFLIQYQESEKVGEAIVLTVPGSERSYDLTGLKPGTEYTVSIYGVLAKNIGISNPLSAIFTT

>  <Label Value>
group C

$$$$
>  <Binder>
ISOP194AR9P1E8 (designed binder, not shown: small tags and cut ends, FN3 domain; E. coli lysate in the ELISA) LPAPKNLVVSRVTEDSARLSWEWLEHFDSFLIQYQESEKVGEAIVLTIPGSERSYDLTGLKPGTEYTVSIYGVYQRKVEFHSNPLSAIFTT

>  <Label Value>
group C

$$$$
>  <Binder>
ISOP121GR5P1D7 (designed binder, not shown: small tags and cut ends, FN3 domain; E. coli lysate in the ELISA) LPAPKNLVVSRVTEDSARLSWTAPDAAFDSFKIWYQERSIVGEAIFLLVPGSERSYDLTGLKPGTEYIVQIFGVKGGPYSNPLWAPFTT

>  <Label Value>
group B

$$$$
>  <Binder>
ISOP194HR9P1D11 (designed binder, not shown: small tags and cut ends, FN3 domain; E. coli lysate in the ELISA) LPAPKNLVVSRVTEDSARLSWTAPDAAFDSFSILYGELIGDGEAIVLTVPGSERSYDLTGLKPGTEYTVYIFGVKGGRYSRPLSAIFTT

>  <Label Value>
group A

$$$$
>  <Binder>
ISOP194ER9P1G3 (designed binder, not shown: small tags and cut ends, FN3 domain; E. coli lysate in the ELISA) LPAPKNLIVSRVTEDSARLSWTAPDAAFDSFRIAYYETMVSGEAIVLTVPGSERSYDLTGLKPGTEYAVIIKGVKGGKPSWPLSAIFTT

>  <Label Value>
group A

$$$$
>  <Binder>
ISOP121GR5P1D2 (designed binder, not shown: small tags and cut ends, FN3 domain; E. coli lysate in the ELISA) LPAPKNLVVSRVTEDSARLSWTAPDAAFDSFHILYQERAQSGEAIGLVVPGSERSYDLTGLKPATEYSVQIFGVKGGKLSNPLWAWFTT

>  <Label Value>
group B

$$$$
>  <Binder>
ISOP194BR9P1G9 (designed binder, not shown: small tags and cut ends, FN3 domain; E. coli lysate in the ELISA) LPAPKNLVVSRVTEDSARLSWTTAFHNEYFDSFLIQYQESEKVGEAIVLTVPGSERSYDLTGLKPGTEYTVSIYGVYIRVQVLWFSNPLSAIFTT

>  <Label Value>
group B

$$$$
>  <Binder>
ISOP121BR5P1C3 (designed binder, not shown: small tags and cut ends, FN3 domain; E. coli lysate in the ELISA) LPAPKNLVVSRVTEDSARLSWASARDYFDSFLIQYQESEKVGEAIVLTVPGSERSYDLTGLKPGTEYTVSIYGVLAIAQITHWFSNPLSAIFTT

>  <Label Value>
group B

$$$$
>  <Binder>
ISOP121BR5P1D10 (designed binder, not shown: small tags and cut ends, FN3 domain; E. coli lysate in the ELISA) LPAPKNLVVSRVTEDSARLSWGKKSHFFDSFLIQYQESEKVGEAIVLTVPGSERSYDLTGLKPGTEYTVSIYGVYTRGQCEWESNQLSAIFFTT

>  <Label Value>
group A

$$$$
